biological target: T1, recombinant human CD47 extracellular domain (ECD), His-tagged, dimer (human, UniProt Q08722 19-141); experiment: MSD; CD47-ECD dimer binding to captured SIRP alpha-Fc, mAb 10 µg/ml
T1 construct: Dimeric fraction of the same His-tagged ECD; also called His-tagged CD47-ECD dimer protein
measured-metric: % SIRP alpha Inhibition

binder="C47B240 (antibody, V domains shown, human IgG2sigma/kappa) VH: EVQLVQSGAEVKKPGESLKISCKGSGYSFTSYWIGWVRQMPGKGLEWMGIIYPGDSDTRYSPSFQGQVTISADKSISTAYLQWSSLKASDTAMYYCARVGRFASHQLDYWGQGTLVTVSS VL: EIVLTQSPATLSLSPGERATLSCRASQSVSNRQAWYQQKPGQAPRLLIHSASNRATGIPARFSGSGSGTDFTLTISSLEPEDFAVYYCQQGRSWPFTFGQGTKVEIK" test_result=93%
binder="C47B229 (antibody, V domains shown, human IgG2sigma/kappa) VH: EVQLVQSGAEVKKPGESLKISCKGSGYSFDDAWIGWVRQMPGKGLEWMGIIYPGDSDTRYSPSFQGQVTISADKSISTAYLQWSSLKASDTAVYYCARVGRFASHQLDYWGQGTLVTVSS VL: EIVLTQSPATLSLSPGERATLSCRASQSVNKALAWYQQKPGQAPRLLIYGASNRATGIPARFSGSGSGTDFTLTISSLEPEDFAVYYCQQGKGWPFTFGQGTKVEIK" test_result=16.1%

Please find the next binder below.
The recorded % SIRP alpha Inhibition for C47B243 (antibody, V domains shown, human IgG2sigma/kappa) VH: EVQLVQSGAEVKKPGESLKISCKGSGYSFTDYWIGWVRQMPGKGLEWMGIIYPGDSDTRYSPSFQGQVTISADKSISTAYLQWSSLKASDTAVYYCARVGRFASHQLDYWGQGTLVTVSS VL: EIVLTQSPATLSLSPGERATLSCRASQSVSNRLAWYQQKPGQAPRLLIYGASNRATGIPARFSGSGSGTDFTLTISSLEPEDFAVYYCQQGRSWPFTFGQGTKVEIK is 99.8%
